Cited source: patent US11578055B2

- test: In Vitro Microsome Stability Assay (monkey)
- Format: in vitro ADME
- condition.set: monkey liver microsomes, 30 min w/ NADPH
assay.metric: Liver Microsome Stability-% Left after 30 min w/ NADPH (%) Monkey

[P] COc1ccc([C@@H]2CCCN(S(=O)(=O)N3CCCN(CC4CCCCC4)CCCN(S(=O)(=O)c4ccc(N(C)C)cc4)C[C@H](C)C3)C2)cc1
[Q] C[C@H]1CN(S(=O)(=O)c2cccc(N(C)C)c2)CCCN(CC2CCCCC2)CCCN(S(=O)(=O)N2CCc3cc(Cl)ccc3C2)C1
Exercise: compare P and Q ; which one has the greater Liver Microsome Stability-% Left after 30 min w/ NADPH (%) Monkey? State your choice using its label.
Key: Q
(Q: 73%, P: 37.5%)

###

- test: In Vitro Microsome Stability Assay (monkey)
- Type: in vitro ADME
- condition.set: monkey liver microsomes, 30 min w/ NADPH
assay.metric: Liver Microsome Stability-% Left after 30 min w/ NADPH (%) Monkey

[P] C[C@H]1CN(S(=O)(=O)c2ccc(C(=O)N(C)C)cc2)CCCN(CC2CCCCC2)CCCN(S(=O)(=O)N2CCc3cc(Cl)ccc3C2)C1
[Q] COc1cc(F)ccc1N1CCN(S(=O)(=O)N2CCCN(CC3CCCCC3)CCCN(S(=O)(=O)c3ccc(N(C)C)cc3)C[C@H](C)C2)CC1
Exercise: Just tell me: smaller Liver Microsome Stability-% Left after 30 min w/ NADPH (%) Monkey value, P or Q ? State your choice using its label.
Key: P

###

- test: In Vitro Microsome Stability Assay (monkey)
- Assay type: in vitro ADME
- condition.set: monkey, 30 min, NADPH
assay.metric: Liver Microsome Stability-% Left after 30 min w/ NADPH (%) Monkey

Recorded results for 4 compounds are shown here.
CN(C)c1ccc(S(=O)(=O)N2CCCN(CC3CCCCC3)CCCN(S(=O)(=O)N3CCC(c4ccccc4)CC3)CC(O)C2)cc1 (stereo not shown) [A55] :: 0.34
C=C1CN(S(=O)(=O)c2ccc(C)cc2)CCCN(CC2CCCCC2)CCCN(S(=O)(=O)c2ccc(C)cc2)C1 [A2] :: 0.09
C[C@H]1CN(S(=O)(=O)c2ccc(N(C)C)cc2)CCCN(CC2CCCCC2)CCCN(S(=O)(=O)N2CCC(c3ccccc3)CC2)C1 [A77] :: 20.8
C=C1CN(S(=O)(=O)c2ccc(N(C)C)cc2F)CCCN(CC2CCCCC2)CCCN(S(=O)(=O)N2CCc3cc(Cl)ccc3C2)C1 [A56] :: 42.6

[I] CN(C)c1ccc(S(=O)(=O)N2CCCN(CC3CCCCC3)CCCN(S(=O)(=O)N3CCC(c4ccccc4)CC3)CC3(CC3)C2)cc1 [A29]
[II] CN(C)c1ccc(S(=O)(=O)N2CCCN(CC3CCCCC3)CCCN(S(=O)(=O)N3CCCCC3)CC3(COC3)C2)cc1 [A17]
Exercise: Just tell me: smaller Liver Microsome Stability-% Left after 30 min w/ NADPH (%) Monkey value, I or II ? State your choice using its label.
Key: II
(II: 0.36%, I: 19.5%)

###

- test: In Vitro Microsome Stability Assay (monkey)
- Type: in vitro ADME
- condition.set: monkey liver microsomes, 30 min w/ NADPH
assay.metric: Liver Microsome Stability-% Left after 30 min w/ NADPH (%) Monkey

C[C@@H]1CN(CC2CCCCC2)C[C@H](C)CN(S(=O)(=O)c2ccc(N(C)C)cc2)C[C@H](C)CN(S(=O)(=O)N2CCc3cc(Cl)ccc3C2)C1 [B16] :: 44.7

[I] Cc1cc(F)ccc1N1CCN(S(=O)(=O)N2CCCN(CC3CCCCC3)CCCN(S(=O)(=O)c3ccc(N(C)C)cc3)C[C@H](C)C2)[C@@H](C)C1 [A162]
[II] C[C@H]1CN(S(=O)(=O)c2ccc(N(C)C)cc2)CCCN(Cc2ncco2)CCCN(S(=O)(=O)N2CCc3cc(Cl)ccc3C2)C1 [A125]
[III] CC(C)CN1CCCN(S(=O)(=O)c2ccc(N(C)C)cc2)C[C@H](C)CN(S(=O)(=O)N2CCc3cc(Cl)ccc3C2)CCC1 [A152]
[IV] C[C@H]1CN(S(=O)(=O)c2ccc(N(C)C)cc2)CCCN(CC2CCCCC2)CCCN(S(=O)(=O)N2CC(c3ccccc3)C2)C1 [A101]
[V] C[C@H]1CN(S(=O)(=O)c2ccc3c(ccn3C)c2)CCCN(CC2CCCCC2)CCCN(S(=O)(=O)N2CCc3cc(Cl)ccc3C2)C1 [A188]
Exercise: Task field, ranking: reported Liver Microsome Stability-% Left after 30 min w/ NADPH (%) Monkey, descending order. API: response body holds the labels in the requested order.
Key: I, IV, V, II, III

###

- test: In Vitro Microsome Stability Assay (rat)
- Assay type: in vitro ADME
- condition.set: rat liver microsomes, 30 min w/ NADPH
assay.metric: Liver Microsome Stability-% Left after 30 min w/ NADPH (%) Rat

Recorded results for 2 compounds are shown here.
Cc1cc(F)ccc1N1CCN(S(=O)(=O)N2CCCN(CC3CCCCC3)CCCN(S(=O)(=O)c3ccc(N(C)C)cc3)C[C@H](C)C2)[C@@H](C)C1 [A162] :: 69.6
COc1cccc([C@@H]2CCCN(S(=O)(=O)N3CCCN(CC4CCCCC4)CCCN(S(=O)(=O)c4ccc(N(C)C)cc4)C[C@H](C)C3)C2)c1 [A209] :: 44.7

[I] C[C@H]1CN(S(=O)(=O)c2ccc(N(C)C)cc2)CCCN(CCC(F)(F)F)CCCN(S(=O)(=O)N2CCc3cc(Cl)ccc3C2)C1 [A165]
[II] COc1cccc(N2CCN(S(=O)(=O)N3CCCN(CC4CCCCC4)CCCN(S(=O)(=O)c4ccc(N(C)C)cc4)C[C@H](C)C3)CC2)c1 [A201]
[III] COc1cc(F)cc(N2[C@H](C)CN(S(=O)(=O)N3CCCN(CC4CCCCC4)CCCN(S(=O)(=O)c4ccc(N(C)C)cc4)C[C@H](C)C3)C[C@@H]2C)c1 [A197]
Exercise: Task field, ranking: reported Liver Microsome Stability-% Left after 30 min w/ NADPH (%) Rat, descending order. API: response body holds the labels in the requested order.
Key: III, II, I

###

- Test system: full length PD1 (amino acids 1-288) fused to Firefly Luciferase
- test: Dox Induced PD1-FL-Gluc Assay
- Assay type: cell-based
- condition.set: 24 hr, 293FRT/TO; read-out: 24 hr Dox Inducible PD1FLFluc 293FRT/TO: Mean IC50
assay.metric: IC50 (nM)

Recorded results for 3 compounds are shown here.
C=C1CN(S(=O)(=O)c2ccc(C)cc2)CCCN(Cc2ccccc2)CCCN(S(=O)(=O)c2ccc(C)cc2)C1 :: 1400
C=C1CN(S(=O)(=O)c2ccc(C)cc2)CCCN(CC2CCCCC2)CCCN(S(=O)(=O)c2ccc(N(C)C)cc2)C1 :: 311
C=C1CN(S(=O)(=O)c2ccc(N(C)C)cc2)CCCN(CC2CCCCC2)CCCN(S(=O)(=O)N2CCC[C@@H](c3ccccc3)C2)C1 :: 161

[A] C=C1CN(S(=O)(=O)c2ccc(N(C)C)cc2)CCCN(CC2CCCCC2)CCCN(S(=O)(=O)N2CC=C(c3ccc(Cl)cc3)CC2)C1
[B] C=C1CN(S(=O)(=O)c2ccc(C)cc2)CCCN(CC2CCCCC2)CCCN(S(=O)(=O)c2ccc(OC)cc2)C1
Exercise: Just tell me: smaller IC50 value, A or B ? State your choice using its label.
Key: A

###

- test: In Vitro Microsome Stability Assay (mouse)
- Assay type: in vitro ADME
- condition.set: mouse, 30 min, NADPH
Structures can show the parent of a compound that is named as a salt.
assay.metric: Liver Microsome Stability-% Left after 30 min w/ NADPH (%) Mouse

CN(C)c1ccc(S(=O)(=O)N2CCCN(CC3CCCCC3)CCCN(S(=O)(=O)N3CCC(c4ccccc4)CC3)CC(O)C2)cc1 (stereo not shown) [A55] :: 1.18

[a] CN(C)c1ccc(S(=O)(=O)N2CCCN(CC3CCCCC3)CCCN(S(=O)(=O)N3CCCC3)CC3(CC3)C2)cc1 [A23]
[b] C=C1CN(S(=O)(=O)c2ccc(N(C)C)cc2)CCCN(CC2CCCCC2)CCCN(S(=O)(=O)N2CCC(c3ccc(Cl)cc3)CC2)C1 [A72]
[c] COC1CCN(S(=O)(=O)N2CCCN(CC3CCCCC3)CCCN(S(=O)(=O)c3ccc(N(C)C)cc3)CC3(CC3)C2)CC1 [A27]
[d] O=S(=O)(N1CCCCC1)N1CCCN(Cc2ccccc2)CCCN(S(=O)(=O)N2CCCCC2)CC2(CC2)C1 [A18, hydrochloride]
Exercise: Task field, ranking: reported Liver Microsome Stability-% Left after 30 min w/ NADPH (%) Mouse, descending order. API: response body holds the labels in the requested order.
Key: b, c, a, d

###

- test: In Vitro Microsome Stability Assay (human)
- Assay type: in vitro ADME
- condition.set: human, 30 min, NADPH
Counter-ions that a name gives are not always drawn.
assay.metric: Liver Microsome Stability-% Left after 30 min w/ NADPH (%) Human

CN(C)c1ccc(S(=O)(=O)N2CCCN(CC3CCCCC3)CCCN(S(=O)(=O)N3CCCCC3)CC3(CC3)C2)cc1 [A19, hydrochloride] :: 0.05
C=C1CN(S(=O)(=O)c2ccc(N(C)C)cc2)CCCN(CC2CCCCC2)CCCN(S(=O)(=O)N2CCc3cc(-c4ccccc4)ccc3C2)C1 :: 76.4
C[C@H]1CN(S(=O)(=O)c2ccc(N(C)C)cc2)CCCN(CC2CCCCC2)CCCN(S(=O)(=O)N2CCN(c3cccc(F)c3)CC2)C1 :: 43.9
C=C1CN(S(=O)(=O)c2ccc(N(C)C)cc2)CCCN(CC2CCCCC2)CCCN(S(=O)(=O)N(C)C)C1 :: 0.11

[P] C=C1CN(S(=O)(=O)c2ccc(N(C)C)cc2)CCCN(CC2CCCCC2)CCCN(S(=O)(=O)N2CC=C(c3cccc(Cl)c3)CC2)C1
[Q] C=C1CN(S(=O)(=O)c2ccc(N(C)C)cc2)CCCN(CC2CCCCC2)CCCN(S(=O)(=O)N2CCN(c3ccc(Cl)cc3)CC2)C1
[R] O=S(=O)(N1CCCCC1)N1CCCN(Cc2ccccc2)CCCN(S(=O)(=O)N2CCCCC2)CC2(CC2)C1 [A18, hydrochloride]
Exercise: Order each entry by recorded Liver Microsome Stability-% Left after 30 min w/ NADPH (%) Human, climbing from the minimum. API: response body holds the labels in the requested order.
Key: R, Q, P
(R: 0.04%, Q: 25.6%, P: 63%)
